# protocolText: small-molecule binders of probe aLefty1, primary screen, biochemical, small-molecule microarray, 635/667 nm fluorescence (AID 1153);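 also: score merges spot fluorescence with signal-to-noise ratio from the scanned slide images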
# conditionSummary: higher = more signal
# composite z-score >= 0.1 gives 1, anything below gives 0

Would you please look over these solved cases?
CCCCO[C@H]1C[C@H]2C(Br)=C[C@@]1(CO)C(=O)[C@]21CO1 ... 0
CC[C@H]1C2=C3C(CC[C@H]4C(OC)OC[C@](C)([C@@H]34)N(C(=O)OC(C)(C)C)C2)C(CO)C1CO (stereo partly specified) ... 1
CC(C)CNC(=O)[C@@]1(C)c2ccccc2C(=O)N(Cc2ccc(OC(F)(F)F)cc2)[C@H]1c1ccc(CO)cc1 ... 1
COc1cc([C@@H]2N[C@H](C(=O)O)Cc3c2[nH]c2ccccc32)cc(OC)c1OC ... 0
CCCCCCc1nc(-c2cc(C)c(OC)c(C)c2)cc2c1[Si](C(C)C)(C(C)C)O[C@H]2c1ccccc1 ... 0

### Prompt # check: composite z-score of "COc1ccc([Si](C)(C)[C@H]2[C@H](CC(=O)N(CCO)Cc3ccccc3)O[C@@]3(C(=O)N(C)c4ccccc43)[C@@H]2C)cc1" is greater than or equal to 0.1
### Response 1
